# Lookup of reported growth keyed by entry
Test system: HCT-116 colon
Test: NCI-60 one-dose screen, 48 h (100 = growth as untreated, 0 = no growth, -100 = all killed)
Details: 10 µM unless noted
Compounds without any hit were thinned out: in the full panel of roughly 83,000, 20% have a hit.
readout_name: growth (%)

{"compound_string": "O=C(O)c1ccccc1Oc1cc(-c2ccco2)nc(OCCBr)n1", "readout_name": "growth", "readout_value": 96.5}
{"compound_string": "CC(=O)Nc1ccc(Sc2ccc([N+](=O)[O-])o2)cc1", "readout_name": "growth", "readout_value": -82}
{"compound_string": "N#C/C(=C\\c1ccc[nH]1)c1cc2ccccc2[nH]1", "readout_name": "growth", "readout_value": 63.4}
{"compound_string": "Cc1ccc2c(c1)c(Sc1ccc(C(=O)NO)cc1)c1n2CN(C)CC1", "readout_name": "growth", "readout_value": -11.2}
{"compound_string": "COCCOC1=C(Cl)C(=O)c2ccccc2C1=O", "readout_name": "growth", "readout_value": -13.5}
{"compound_string": "NC(=O)c1cc(I)ccc1NC(=O)COc1ccc(Cl)cc1Cl", "readout_name": "growth", "readout_value": 90.7}
